These records show pIC50 for Human indoleamine 2,3-dioxygenase1 (hIDO1) (Homo sapiens (Human), UniProt P14902).
pIC50: −log10 of the molar value.
property-name: pIC50

Nc1sc2c(-c3ccccc3)cccc2c1Nc1ccc(F)c(Cl)c1 :: > 6.70
CCOC(=O)Nc1oc2c(-c3ccncc3)nccc2c1N(C(=O)OCC)c1ccc(F)c(C(F)(F)F)c1 :: < 6.00
O=C(Nc1oc2cnccc2c1Nc1ccc(F)c(Cl)c1)OCc1ccccc1 :: < 6.00
CCCc1nccc2c(Nc3ccc(F)c(C(F)(F)F)c3)c(N)oc12 :: > 6.70
COC(=O)Nc1oc2cnccc2c1N(C(=O)OC)c1ccc(F)c(Cl)c1 :: < 6.00
Nc1oc2cnccc2c1Nc1ccc(Cl)cc1Cl :: < 6.00
Nc1oc2c(N3CCOCC3)nccc2c1Nc1ccc(F)c(Cl)c1 :: > 6.70
Nc1oc2cccnc2c1Nc1ccc(F)c(Cl)c1 :: > 6.70
Cc1ccc(Nc2c(N)oc3cnccc23)cc1 :: < 6.00

###

The entries below are paired with their reported pIC50.
target: IDO1 in HeLa cells (Homo sapiens (Human), UniProt P14902); experiment: HeLa cell based IDO1 assay (IFNγ-induced, KYN in supernatant)
Sequence (P14902 whole entry): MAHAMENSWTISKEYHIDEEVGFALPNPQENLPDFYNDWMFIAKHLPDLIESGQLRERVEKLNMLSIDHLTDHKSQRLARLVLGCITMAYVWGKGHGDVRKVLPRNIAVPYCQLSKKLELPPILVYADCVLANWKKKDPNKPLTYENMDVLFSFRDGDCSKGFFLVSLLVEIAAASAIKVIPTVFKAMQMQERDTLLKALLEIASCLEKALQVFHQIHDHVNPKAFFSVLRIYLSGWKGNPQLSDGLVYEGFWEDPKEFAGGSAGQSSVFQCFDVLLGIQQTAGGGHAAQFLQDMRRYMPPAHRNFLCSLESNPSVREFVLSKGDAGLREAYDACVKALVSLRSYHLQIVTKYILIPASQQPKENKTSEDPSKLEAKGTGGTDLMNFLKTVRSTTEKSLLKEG
pIC50: −log10 of the molar value.
property-name: pIC50

Nc1oc2cnccc2c1Nc1cc(F)c(F)c(Br)c1 :: 6.00 to 6.70
Cc1cc(-c2nccc3c(Nc4ccccc4Cl)c(N)oc23)ccn1 :: > 6.70
Nc1oc2c(-c3ccncc3)nccc2c1Nc1ccc(F)c(F)c1 :: > 6.70
Cc1nccc2c(Nc3cccc(C(F)(F)F)c3)c(N)oc12 :: > 6.70
C#Cc1cccc(Nc2c(N)oc3c(CC)nccc23)c1 :: > 6.70

###

biological target: IDO1 in HeLa cells (Homo sapiens (Human)); test: HeLa cell based IDO1 assay (IFNγ-induced, KYN in supernatant)
pIC50: −log10 of the molar value. Where a name gives a salt, the structure may show the parent alone.
property-name: pIC50

Cc1cc(Cl)cc(Nc2c(N)oc3cnccc23)c1 :: 6.00 to 6.70
N#Cc1nccc2c(Nc3ccc(F)c(F)c3)c(N)oc12 :: > 6.70
Nc1sc2ccc(Cl)cc2c1Nc1cccc(C(F)(F)F)c1 [Compound 133, hydrochloride] :: 6.00 to 6.70
Nc1oc2c(-c3ccncc3)nccc2c1Nc1ccc(F)c(C(F)(F)F)c1 :: > 6.70
N#Cc1ccc2c(Nc3ccccc3Cl)c(N)oc2c1 :: 6.00 to 6.70
Nc1oc2c[n+]([O-])ccc2c1Nc1ccc(F)c(Cl)c1 :: 6.00 to 6.70
CCc1nccc2c(Nc3ccc(F)c(C(F)(F)F)c3)c(N)oc12 :: > 6.70
Nc1oc2c(-c3ccccc3Cl)nccc2c1Nc1ccc(F)c(F)c1 :: > 6.70
CC(C)c1nccc2c(Nc3ccc(F)c(Cl)c3)c(N)oc12 :: > 6.70
C#Cc1cccc(Nc2c(N)oc3cnccc23)c1 :: > 6.70
Nc1oc2c(F)nccc2c1Nc1ccc(F)c(Cl)c1 :: > 6.70
COc1cccc(-c2nccc3c(Nc4ccc(F)c(Cl)c4)c(N)oc23)c1 :: > 6.70
Nc1oc2c(I)nccc2c1Nc1ccc(F)c(Cl)c1 :: > 6.70
Nc1oc2cnccc2c1Nc1ccc(F)c(Br)c1 :: > 6.70
Nc1oc2c(-c3ccnc(C(F)(F)F)c3)nccc2c1Nc1ccc(F)c(Cl)c1 :: > 6.70
COc1cncc2oc(N)c(Nc3ccc(F)c(Cl)c3)c12 :: > 6.70
COc1ccc(-c2nccc3c(Nc4ccc(F)c(Cl)c4)c(N)oc23)cc1 :: > 6.70
Cc1cc(-c2nccc3c(Nc4ccc(F)c(Cl)c4)c(N)oc23)ccn1 :: > 6.70
Nc1sc2ccc(Cl)cc2c1Nc1ccccc1 :: 6.00 to 6.70
Cc1ncc(C)c2c(Nc3ccc(F)c(Cl)c3)c(N)oc12 :: 6.00 to 6.70
